experiment: self-splicing fitness, log relative to wild type (ln ratio); higher = more splicing; Tetrahymena group I intron in knt gene, E. coli kanamycin selection, DiMSum; sequences stand for … in CUCUCU…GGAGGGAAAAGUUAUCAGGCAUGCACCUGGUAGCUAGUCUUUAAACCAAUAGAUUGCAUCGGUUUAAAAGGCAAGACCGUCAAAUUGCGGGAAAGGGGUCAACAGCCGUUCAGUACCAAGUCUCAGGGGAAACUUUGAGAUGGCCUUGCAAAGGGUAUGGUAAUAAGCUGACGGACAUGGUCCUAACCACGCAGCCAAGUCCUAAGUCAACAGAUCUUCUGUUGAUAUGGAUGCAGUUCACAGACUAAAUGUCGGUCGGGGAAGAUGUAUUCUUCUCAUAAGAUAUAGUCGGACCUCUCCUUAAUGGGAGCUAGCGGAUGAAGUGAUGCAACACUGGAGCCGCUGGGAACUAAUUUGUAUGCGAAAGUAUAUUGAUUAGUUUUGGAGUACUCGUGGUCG; settings: 30 °C;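 further: selection with 25 µg/mL kanamycin versus none on LB agar overnight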
Documented self-splicing fitness (ln) across a set of sequences
MEASUREMENT TYPE: self-splicing fitness (ln)

>  <SEQUENCE>
CACCAGCAAUAUUACGGCUG

>  <MEASUREMENT TYPE>
self-splicing fitness (ln)

>  <OBSERVED RESULT>
-3.78

$$$$
>  <SEQUENCE>
UGACAGCAAUAUUACGUGCC

>  <MEASUREMENT TYPE>
self-splicing fitness (ln)

>  <OBSERVED RESULT>
-1.3

$$$$
>  <SEQUENCE>
CCUUAGCAAUAUUACGCUAA

>  <MEASUREMENT TYPE>
self-splicing fitness (ln)

>  <OBSERVED RESULT>
-3.35

$$$$
>  <SEQUENCE>
CGCAAGCAAUAUUACGCGUG

>  <MEASUREMENT TYPE>
self-splicing fitness (ln)

>  <OBSERVED RESULT>
-3.08

$$$$
>  <SEQUENCE>
UUAGAGCAAUAUUACGGGAG

>  <MEASUREMENT TYPE>
self-splicing fitness (ln)

>  <OBSERVED RESULT>
-2.32

$$$$
>  <SEQUENCE>
AUGGAGCAAUAUUACGGCCA

>  <MEASUREMENT TYPE>
self-splicing fitness (ln)

>  <OBSERVED RESULT>
-1.49

$$$$
>  <SEQUENCE>
AGUAAGCAAUAUUACGACUC

>  <MEASUREMENT TYPE>
self-splicing fitness (ln)

>  <OBSERVED RESULT>
-1.88

$$$$
>  <SEQUENCE>
AGAAAGCAAUAUUACGCAUC

>  <MEASUREMENT TYPE>
self-splicing fitness (ln)

>  <OBSERVED RESULT>
-2.53

$$$$
>  <SEQUENCE>
AAGCAGCAAUAUUACGAAAC

>  <MEASUREMENT TYPE>
self-splicing fitness (ln)

>  <OBSERVED RESULT>
-3.7

$$$$
>  <SEQUENCE>
CUGUAGCAAUAUUACGGGGG

>  <MEASUREMENT TYPE>
self-splicing fitness (ln)

>  <OBSERVED RESULT>
-4.4

$$$$
>  <SEQUENCE>
AUGAAGCAAUAUUACGAUGC

>  <MEASUREMENT TYPE>
self-splicing fitness (ln)

>  <OBSERVED RESULT>
-1.95

$$$$
>  <SEQUENCE>
GGACAGCAAUAUUACGGCCU

>  <MEASUREMENT TYPE>
self-splicing fitness (ln)

>  <OBSERVED RESULT>
-2.3

$$$$
>  <SEQUENCE>
AGUAAGCAAUAUUACGAGGG

>  <MEASUREMENT TYPE>
self-splicing fitness (ln)

>  <OBSERVED RESULT>
-3.06

$$$$
>  <SEQUENCE>
UCAUAGCAAUAUUACGGUCG

>  <MEASUREMENT TYPE>
self-splicing fitness (ln)

>  <OBSERVED RESULT>
-1.14

$$$$
>  <SEQUENCE>
UAGAAGCAAUAUUACGCAAU

>  <MEASUREMENT TYPE>
self-splicing fitness (ln)

>  <OBSERVED RESULT>
-2.51

$$$$
>  <SEQUENCE>
UCAAAGCAAUAUUACGAAUU

>  <MEASUREMENT TYPE>
self-splicing fitness (ln)

>  <OBSERVED RESULT>
-3.32

$$$$
>  <SEQUENCE>
GAGGAGCAAUAUUACGUUUC

>  <MEASUREMENT TYPE>
self-splicing fitness (ln)

>  <OBSERVED RESULT>
-2.74

$$$$
>  <SEQUENCE>
ACGGAGCAAUAUUACGAUAU

>  <MEASUREMENT TYPE>
self-splicing fitness (ln)

>  <OBSERVED RESULT>
-2.48

$$$$
>  <SEQUENCE>
GAGUAGCAAUAUUACGGCGU

>  <MEASUREMENT TYPE>
self-splicing fitness (ln)

>  <OBSERVED RESULT>
-0.448

$$$$
>  <SEQUENCE>
UAAAAGCAAUAUUACGUGCU

>  <MEASUREMENT TYPE>
self-splicing fitness (ln)

>  <OBSERVED RESULT>
-2.62

$$$$

====

assay: self-splicing fitness, log relative to wild type (ln ratio); higher = more splicing; Tetrahymena group I intron in knt gene, E. coli kanamycin selection, DiMSum; sequences stand for … in CUCUCU…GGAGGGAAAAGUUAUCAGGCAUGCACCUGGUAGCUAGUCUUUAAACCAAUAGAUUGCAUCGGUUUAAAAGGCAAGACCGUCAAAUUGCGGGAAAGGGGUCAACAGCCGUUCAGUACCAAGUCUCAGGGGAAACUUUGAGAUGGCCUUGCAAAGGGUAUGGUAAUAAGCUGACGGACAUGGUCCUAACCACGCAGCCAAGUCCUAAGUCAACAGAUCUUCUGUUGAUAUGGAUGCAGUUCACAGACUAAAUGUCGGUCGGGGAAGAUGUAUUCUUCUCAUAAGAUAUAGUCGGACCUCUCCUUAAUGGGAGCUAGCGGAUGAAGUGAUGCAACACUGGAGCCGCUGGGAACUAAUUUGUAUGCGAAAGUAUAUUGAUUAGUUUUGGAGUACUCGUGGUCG; settings: 30 °C

>  <SEQUENCE>
GCACAGCAAUAUUACGGAAG

>  <self-splicing fitness (ln)>
-3.04

$$$$
>  <SEQUENCE>
UAGAAGCAAUAUUACGGGGC

>  <self-splicing fitness (ln)>
-3.58

$$$$
>  <SEQUENCE>
UGCGAGCAAUAUUACGGUAC

>  <self-splicing fitness (ln)>
-4.18

$$$$
>  <SEQUENCE>
UCGGAGCAAUAUUACGAUGG

>  <self-splicing fitness (ln)>
-3.2

$$$$
>  <SEQUENCE>
GUCAAGCAAUAUUACGAUGU

>  <self-splicing fitness (ln)>
-1.75

$$$$
>  <SEQUENCE>
AUGAAGCAAUAUUACGUUAA

>  <self-splicing fitness (ln)>
-1.51

$$$$
>  <SEQUENCE>
UACCAGCAAUAUUACGCAAA

>  <self-splicing fitness (ln)>
-1.54

$$$$
>  <SEQUENCE>
GCCUAGCAAUAUUACGUACA

>  <self-splicing fitness (ln)>
-2.54

$$$$
>  <SEQUENCE>
GAGAAGCAAUAUUACGCGUA

>  <self-splicing fitness (ln)>
-1.03

$$$$
>  <SEQUENCE>
CCGCAGCAAUAUUACGAGUC

>  <self-splicing fitness (ln)>
-3.36

$$$$
>  <SEQUENCE>
CAAGAGCAAUAUUACGCGAU

>  <self-splicing fitness (ln)>
-2.62

$$$$
>  <SEQUENCE>
AGUUAGCAAUAUUACGCAUU

>  <self-splicing fitness (ln)>
-3.25

$$$$
>  <SEQUENCE>
UGCAAGCAAUAUUACGGGCC

>  <self-splicing fitness (ln)>
-1.31

$$$$
>  <SEQUENCE>
ACACAGCAAUAUUACGUUCC

>  <self-splicing fitness (ln)>
-2.17

$$$$
>  <SEQUENCE>
GCUCAGCAAUAUUACGCUUG

>  <self-splicing fitness (ln)>
-2.04

$$$$
>  <SEQUENCE>
CUGCAGCAAUAUUACGAUGC

>  <self-splicing fitness (ln)>
-3.13

$$$$
>  <SEQUENCE>
GGCCAGCAAUAUUACGUCUA

>  <self-splicing fitness (ln)>
-2.43

$$$$
>  <SEQUENCE>
AACAAGCAAUAUUACGGAGG

>  <self-splicing fitness (ln)>
-3.19

$$$$
>  <SEQUENCE>
UGAAAGCAAUAUUACGGCGG

>  <self-splicing fitness (ln)>
-1.03

$$$$
>  <SEQUENCE>
GGCUAGCAAUAUUACGGACG

>  <self-splicing fitness (ln)>
0.655

$$$$
>  <SEQUENCE>
GAAGAGCAAUAUUACGGUAG

>  <self-splicing fitness (ln)>
-3.51

$$$$
>  <SEQUENCE>
GCCGAGCAAUAUUACGAGGA

>  <self-splicing fitness (ln)>
-1.32

$$$$
>  <SEQUENCE>
ACGUAGCAAUAUUACGUACA

>  <self-splicing fitness (ln)>
-2.02

$$$$
>  <SEQUENCE>
CAGUAGCAAUAUUACGGGGU

>  <self-splicing fitness (ln)>
-4.35

$$$$
>  <SEQUENCE>
UUUCAGCAAUAUUACGAGCA

>  <self-splicing fitness (ln)>
-1.41

$$$$
>  <SEQUENCE>
AUCCAGCAAUAUUACGAGCA

>  <self-splicing fitness (ln)>
-1.14

$$$$
>  <SEQUENCE>
UGCGAGCAAUAUUACGGGUG

>  <self-splicing fitness (ln)>
-1.72

$$$$
>  <SEQUENCE>
ACACAGCAAUAUUACGCGGU

>  <self-splicing fitness (ln)>
-4.42

$$$$
>  <SEQUENCE>
CAGGAGCAAUAUUACGGGCC

>  <self-splicing fitness (ln)>
-3.76

$$$$
>  <SEQUENCE>
CUGCAGCAAUAUUACGACCG

>  <self-splicing fitness (ln)>
0.161

$$$$

Source listed as the supplement of paper PMC7877785.
